Test system: SNB-19 CNS
Assay: NCI-60 one-dose screen, 48 h
Details: 10 µM unless noted
Description: Growth inhibition of the SNB-19 human tumor cell line is measured as a screen for anti-cancer activity. Cells are grown in 96 well plates and exposed to the test compound for 48 hours. Compounds are tested at a single concentration, which is 10^-5 M for most compounds. The reported endpoint is percent growth (GI% or GIPRCNT), where numbers from 0 - 100% represent growth inhibition, and numbers from -100% - 0 represent cell death. For example, a value of 40 represents 60% growth inhibition. […]
Compounds without any hit were thinned out: in the full panel of roughly 83,000, 20% have a hit. Active and inactive are the calls of the source. The calls were made as follows: active = growth percent below 10; inactive = the rest.
Possible outcomes: 1 (yes) for active, 0 (no) for inactive

> print(dat)
                                    compound  test.system    class
 1  O=C(CCCCCCNC(=O)C(O)(O)C(F)(F)F)Nc1ccc(-c2ccccc2)cc1   SNB-19 CNS   0 (no)
 2  CN(C)CCNc1ccc2ncc(C#Cc3cncc(C(=O)Nc4ccc(CN5CCN(C)CC5)c(C(F)(F)F)c4)c3)n2n1   SNB-19 CNS  1 (yes)
 3  COc1cc(C(=O)c2cc(C(C)=O)c3cccc(C)n23)cc(OC)c1OC   SNB-19 CNS   0 (no)
 4  C/C(=C(/C)C1CC1CCNC1CCC(NC(=O)OC(C)(C)C)CC1)c1ccccc1 (centres undefined)   SNB-19 CNS   0 (no)
 5  CCCCN1C(=O)/C(=c2\sc3n(c2=O)C2C(NN=3)N(CC)C(=O)N2CC)c2cccc(C)c21 (centres undefined)   SNB-19 CNS   0 (no)
 6  Cc1cc2nc(C(Cl)Cl)nc(-c3ccc(S(=O)(=O)N(C)C)cc3)n2n1   SNB-19 CNS   0 (no)
 7  CN1CCN(c2ccc(Nc3nc(NCCCNS(=O)(=O)c4ccc(C(F)(F)F)cc4)c4sccc4n3)cc2)CC1   SNB-19 CNS   0 (no)
 8  CN(C)c1cccc2c(S(=O)(=O)Nc3cccc(-c4csc(NC(=O)CCCCCN5CCN(CCO)CC5)n4)c3)cccc12   SNB-19 CNS   0 (no)
 9  O=C(CCCCCCN1CC(=O)N2[C@@H](C3CC3)c3[nH]c4ccccc4c3C[C@H]2C1=O)NO   SNB-19 CNS   0 (no)
10  CC1CC(=O)C2=C(C1)Nc1ccc(Br)cc1CC2c1c[nH]c2ccc(Br)cc12 (centres undefined)   SNB-19 CNS   0 (no)
11  Oc1[nH]c2ccc(Cl)cc2c1N=Nc1nc(N=Nc2c(O)[nH]c3ccc(Cl)cc23)nc(N2CCCCC2)n1   SNB-19 CNS   0 (no)
12  O=C(CCCCCCNC(=O)C(O)(O)C(F)(F)F)Nc1ccc(Cl)cc1   SNB-19 CNS   0 (no)
13  Cc1nc(N)sc1-c1csc(Nc2ccc(C(F)(F)F)cc2)n1   SNB-19 CNS   0 (no)
14  O=C(CCCCCCNC(=O)C(O)(O)C(F)(F)F)Nc1ccc(Br)cc1   SNB-19 CNS   0 (no)
15  COc1ccc(/C=N/NC(=O)CSc2nc(-c3cnccn3)cc(-c3cccs3)c2C#N)cc1   SNB-19 CNS   0 (no)
16  CN(C)CCCOc1ccc(C(=C(c2ccccc2)C2CCCC2)c2ccc(OCCCN(C)C)cc2)cc1   SNB-19 CNS  1 (yes)
17  CCOC(=O)c1cnc2c(-c3ccc(Cl)c(Cl)c3)cnn2c1   SNB-19 CNS   0 (no)
18      O=C(/C=C/c1ccc(F)cc1)Nc1cccc2cccnc12   SNB-19 CNS   0 (no)
19  Cc1ccc(/C=N/Nc2nc(Nc3ccccc3)nc(Nc3ccc(S(N)(=O)=O)cc3)n2)cc1   SNB-19 CNS   0 (no)

* * *

test system: TK-10 renal; test: NCI-60 one-dose screen, 48 h (100 = growth as untreated, 0 = no growth, -100 = all killed); settings: 10 µM unless noted
This is part of a sample that, as a whole, favours compounds with a hit. Of some 83,000 tested, about 20% had one in any assay. The source made the active and inactive calls. Rule for the calls: active = growth percent below 10; inactive = the rest.
In this section we review reported growth values for a set of molecules.
READOUT_KIND: growth

MOLECULE	TEST_SYSTEM	READOUT_KIND	MEASURED_VALUE
NC(=O)c1c(NC(=O)c2ccc(C(F)(F)F)cc2)sc2c1CCC(=O)C2	TK-10 renal	growth	17% (inactive)
O=C(NCCNc1cc(-c2cn(-c3ccccc3)nc2-c2cccc(O)c2)ccn1)Nc1cc(C(F)(F)F)cc(C(F)(F)F)c1	TK-10 renal	growth	94.4% (inactive)
CC(=O)N(O)CCCCCNC(=O)CCC(=O)N(O)CCCCCNC(=O)CCC(=O)N(O)CCCCCN(CCCCCCCCCC[P+](c1ccccc1)(c1ccccc1)c1ccccc1)CCCCCCCCCC[P+](c1ccccc1)(c1ccccc1)c1ccccc1	TK-10 renal	growth	26.5% (inactive)
NCCNC(=O)c1cccc(COc2ccccc2NC(=O)c2cc(Cl)c(Cl)[nH]2)c1	TK-10 renal	growth	94.2% (inactive)
CCOC(=O)c1ccc(NC2=C(Cl)C(=O)c3nc(C)ccc3C2=O)cc1	TK-10 renal	growth	99.4% (inactive)
Cc1ccc(S(=O)(=O)c2nc(-c3ccc(F)cc3)oc2S(C)(=O)=O)cc1	TK-10 renal	growth	93.1% (inactive)
Fc1cccc(Cl)c1/C=N/Nc1nc(N/N=C/c2c(F)cccc2Cl)nc(N2CCCCC2)n1	TK-10 renal	growth	27.2% (inactive)
CC(C)=CCC[C@](C)(O)[C@H]1CC[C@]2(C)[C@@H]1CC[C@@H]1[C@@]3(C)CC[C@H](N)C(C)(C)[C@@H]3CC[C@]12C	TK-10 renal	growth	127% (inactive)
O=[N+]([O-])c1ccc(NC(=S)NNC(=S)Nc2ccc(Br)cc2)cc1	TK-10 renal	growth	127% (inactive)
COc1ccc(-c2c(C(N)=O)c(N)n(Cc3nc4ccccc4[nH]3)c(=O)c2C#N)c(OC)c1	TK-10 renal	growth	150% (inactive)
CN1CCN(c2ccc(Nc3nc(NCCNC(=O)c4ccc(F)cc4)c4sccc4n3)cc2)CC1	TK-10 renal	growth	128% (inactive)
O=C(/C=C/c1cccc(C(F)(F)F)c1)Nc1cccc(C(F)(F)F)c1	TK-10 renal	growth	53.5% (inactive)
CC1(C)C=Cc2cc(/C(N)=N/C(N)=N/c3nc4ccccc4s3)ccc2O1	TK-10 renal	growth	113% (inactive)
O=C(CCCCCCNC(=O)c1csc(Br)n1)NO	TK-10 renal	growth	-3.87% (active)
CC1=C(C)C(=O)C(Nc2ccc(C)c(C)c2)=C(Br)C1=O	TK-10 renal	growth	157% (inactive)
C[C@H](Nc1ncnc2ccc(-c3cnc(Cl)c(NS(C)(=O)=O)c3)cc12)c1ccccc1	TK-10 renal	growth	-82.3% (active)
N#C/C(=C\c1cccc2c1OCO2)C(=O)Nc1sc2c(c1C#N)CCCC2	TK-10 renal	growth	120% (inactive)
COc1cccc(N2CCN(C3=C(Cl)C(=O)c4ncccc4C3=O)CC2)c1	TK-10 renal	growth	126% (inactive)
Cn1ncc2ncc(-c3ccc4ncc(C#N)c(N5CCc6cc(F)c(Cl)cc65)c4c3)cc21	TK-10 renal	growth	63.2% (inactive)
CC(C)C(/C=C/c1[nH]ncc1-c1cc(Cl)ccc1O)N1CCOCC1 (stereo unspecified)	TK-10 renal	growth	119% (inactive)
CN(C)c1ccc(-c2cc(-c3c[nH]c4ccccc34)nc(N)c2C#N)cc1	TK-10 renal	growth	72.9% (inactive)
CC(C)(C)c1cc(NC(=O)Nc2ccc(-c3cn4c5c(sc4n3)CCc3cn(CCCN4CCCCC4)cc3-5)cc2)no1	TK-10 renal	growth	-89.3% (active)
C[C@@H]1OCC2(CCN(c3cnc(C(=O)Nc4cc(F)cc5cccnc45)cn3)CC2)[C@@H]1N	TK-10 renal	growth	90.8% (inactive)
Nc1cc(C(=O)N/N=C\c2ccc(OC(F)F)c(OC3CCCC3)c2)nn1CC(O)c1ccccc1 (stereo unspecified)	TK-10 renal	growth	112% (inactive)
Cn1ncc2c(C(=O)c3ccc(F)cc3)nc(C(C)(C)C)nc21	TK-10 renal	growth	82% (inactive)
COc1ccccc1/C=C1\Oc2ccc(O)c(O)c2C1=O	TK-10 renal	growth	100% (inactive)
O=C(CCCCCCNC(=O)C(O)(O)C(F)(F)F)Nc1nc2ccccc2s1	TK-10 renal	growth	-3.74% (active)
O=C(Nc1ccc(N=Cc2c(O)[nH]c3ccccc23)cc1)Nc1ccc(S(=O)(=O)Nc2ncccn2)cc1	TK-10 renal	growth	108% (inactive)
Cn1cc(-c2nc(N)nnc2-c2c[nH]c3ccc(Br)cc23)c2cc(F)ccc21	TK-10 renal	growth	131% (inactive)
CC(=O)Nc1cc(N2CCOCC2)c2nc(NC(=O)c3[nH]c(C)c(Cl)c3Cl)sc2c1	TK-10 renal	growth	112% (inactive)
Cc1csc(/N=C(N)/N=C(\N)c2cccc(Br)c2)n1	TK-10 renal	growth	149% (inactive)
CCNC(=O)Oc1ccc(/C(=C(/C)c2ccc(Cl)cc2)c2ccc(OCCN3CCCCCC3)cc2)cc1	TK-10 renal	growth	84.5% (inactive)
Cc1ccc2c(n1)C(=O)C(Cl)=C(Nc1ccc(C#N)cc1)C2=O	TK-10 renal	growth	104% (inactive)
CC[C@]12CC(C(=O)OC)=C3Nc4ccccc4[C@@]34CCN(C14)[C@@H]1c3cc4c(cc3O[C@@H]1[C@H]2O)NC1=C(C(=O)OC)C[C@@]2(CC)C3N(CC[C@@]143)C[C@H]1O[C@H]12 (stereo partly specified)	TK-10 renal	growth	6.66% (active)
COc1cccc2c1[C@H](OC)[C@]13O[C@@]1(C2=O)[C@H](O)[C@H](C)[C@@](O)(C(=O)[C@@H]1O[C@H]1C)[C@@H]3O	TK-10 renal	growth	-22.6% (active)
CCN(CC)c1ccc(/C=N/NC(=O)c2ccc(S(N)(=O)=O)cc2)c(O)c1	TK-10 renal	growth	37.4% (inactive)

// data source = PubChem BioAssay (NCI)
